system: K562 cells; assay: Cell cycle analysis by flow cytometry; type: cell-based, human; conditions: 20 μg/mL, 24 h; control 40.5 ± 1.3
# note: exactly 70% is not below, so it is not fulfilled; use fulfilled for K562 cells in G0/G1 phase strictly under it

1. CC(C)C1NC2(C(=O)Nc3ccccc32)C2(c3ccccc3)C(c3ccccc3)C12c1ccccc1 (centres unmarked) = not fulfilled
2. O=C1Nc2ccc([N+](=O)[O-])cc2C12N1CCCC1C1(c3ccccc3)C(c3ccccc3)C12c1ccccc1 (centres unmarked) = not fulfilled
3. COC(=O)C1C2(c3ccccc3)C(Cc3ccc(O)cc3)NC3(C(=O)Nc4ccccc43)C12c1ccccc1 (centres unmarked) = not fulfilled
4. NC(=O)CC1NC2(C(=O)Nc3ccccc32)C2(c3ccccc3)C(c3ccccc3)C12c1ccccc1 (centres unmarked) = fulfilled

====

test system: acute T cell leukemia (Jurkat) cell line; assay: MTS cell proliferation assay, Jurkat; assay type: cell-based, human; settings: Homo sapiens, read-out: IC50 Jurkat 24 h; Jurkat, 24 h, MTS
Recorded IC50 for the following compounds
parameterMeasured: IC50 (µM)

1. O=C1Nc2ccc([N+](=O)[O-])cc2C12N1CCCC1C1(c3ccccc3)C(c3ccccc3)C12c1ccccc1 (centres unmarked) [Compound 2] = 18
2. NC(=O)CC1NC2(C(=O)Nc3ccccc32)C2(c3ccccc3)C(c3ccccc3)C12c1ccccc1 (centres unmarked) [Compound 18] = 6
3. CC(C)C1NC2(C(=O)Nc3ccccc32)C2(c3ccccc3)C(c3ccccc3)C12c1ccccc1 (centres unmarked) [Compound 8] = 11
4. COC(=O)C1C2(c3ccccc3)C(Cc3ccc(O)cc3)NC3(C(=O)Nc4ccccc43)C12c1ccccc1 (centres unmarked) [Compound 17] = 12
5. CC(C)CC1NC2(C(=O)Nc3ccccc32)C2(c3ccccc3)C(c3ccccc3)C12c1ccccc1 (centres unmarked) [Compound 22] = 21
6. CSCCC1NC2(C(=O)Nc3ccccc32)C2(c3ccccc3)C(c3ccccc3)C12c1ccccc1 (centres unmarked) [Compound 24] = 22
7. CC[C@H](C)C1NC2(C(=O)Nc3ccccc32)C2(c3ccccc3)C(c3ccccc3)C12c1ccccc1 (some centres unmarked) [Compound 23] = 25
8. CC[C@H](C)C1NC2(C(=O)Nc3ccccc32)C2(c3ccccc3)C(C(=O)OC)C12c1ccccc1 (some centres unmarked) [Compound 4] = 11

====

tested on: K562 cells; assay: Cell cycle analysis by flow cytometry; type: cell-based, human; conditions: 5 μg/mL, 24 h; control 31.9 ± 1.0
parameterMeasured: K562 cells in S phase (%)

1) NC(=O)CC1NC2(C(=O)Nc3ccccc32)C2(c3ccccc3)C(c3ccccc3)C12c1ccccc1 (stereo not drawn) [Compound 18] = 31.4
2) COC(=O)C1C2(c3ccccc3)C(Cc3ccc(O)cc3)NC3(C(=O)Nc4ccccc43)C12c1ccccc1 (stereo not drawn) [Compound 17] = 25.1
3) CC[C@H](C)C1NC2(C(=O)Nc3ccccc32)C2(c3ccccc3)C(C(=O)OC)C12c1ccccc1 (stereo partly drawn) [Compound 4] = 26.6

====

system: mouse colon carcinoma (CT26) cell line; test: MTS cell proliferation assay, CT26; format: cell-based; conditions: ratio of cytotoxicity PBMC / CT26, calculated at 72 h
Recorded SI (selectivity index) CT26 for the following molecules
parameterMeasured: SI (selectivity index) CT26

1. COc1cccc2c1C(=O)c1c(O)c3c(c(O)c1C2=O)C[C@@](O)(C(=O)CO)C[C@@H]3O[C@H]1C[C@H](N)[C@H](O)[C@H](C)O1 [Doxorubicin, reference compound] = 2
2. NC(=O)CC1NC2(C(=O)Nc3ccccc32)C2(c3ccccc3)C(c3ccccc3)C12c1ccccc1 (stereo not drawn) = 1
3. CC[C@H](C)C1NC2(C(=O)Nc3ccccc32)C2(c3ccccc3)C(c3ccccc3)C12c1ccccc1 (stereo partly drawn) = 3
4. CSCCC1NC2(C(=O)Nc3ccccc32)C2(c3ccccc3)C(c3ccccc3)C12c1ccccc1 (stereo not drawn) = 1
5. O=C1Nc2ccc([N+](=O)[O-])cc2C12N1CCCC1C1(c3ccccc3)C(c3ccccc3)C12c1ccccc1 (stereo not drawn) = 4
6. CC[C@H](C)C1NC2(C(=O)Nc3ccccc32)C2(c3ccccc3)C(C(=O)OC)C12c1ccccc1 (stereo partly drawn) = 4
7. CC(C)C1NC2(C(=O)Nc3ccccc32)C2(c3ccccc3)C(c3ccccc3)C12c1ccccc1 (stereo not drawn) = 4
8. CC(C)CC1NC2(C(=O)Nc3ccccc32)C2(c3ccccc3)C(c3ccccc3)C12c1ccccc1 (stereo not drawn) = 2
9. COC(=O)C1C2(c3ccccc3)C(Cc3ccc(O)cc3)NC3(C(=O)Nc4ccccc43)C12c1ccccc1 (stereo not drawn) = 5

====

tested on: peripheral blood mononuclear cells (PBMC); test: MTS cytotoxicity towards normal cells, PBMC; type: cell-based; conditions: Homo sapiens, read-out: IC50 PBMC 24 h, 24 h
Recorded IC50 for the following compounds
parameterMeasured: IC50

1. COc1cccc2c1C(=O)c1c(O)c3c(c(O)c1C2=O)C[C@@](O)(C(=O)CO)C[C@@H]3O[C@H]1C[C@H](N)[C@H](O)[C@H](C)O1 [Doxorubicin, reference compound] = 11 µM
2. CC[C@H](C)C1NC2(C(=O)Nc3ccccc32)C2(c3ccccc3)C(C(=O)OC)C12c1ccccc1 (stereo partly drawn) [Compound 4] = 174 µM
3. CSCCC1NC2(C(=O)Nc3ccccc32)C2(c3ccccc3)C(c3ccccc3)C12c1ccccc1 (stereo not drawn) [Compound 24] = 113 µM

====

tested on: K562 cells; experiment: Cell cycle analysis by flow cytometry; assay type: cell-based, human; conditions: 10 μg/mL, 24 h; control 23.1 ± 1.7
# note: exactly 8% is not below, so it is no (0); use yes (1) for K562 cells in G2/M phase strictly under it

1. COC(=O)C1C2(c3ccccc3)C(Cc3ccc(O)cc3)NC3(C(=O)Nc4ccccc43)C12c1ccccc1 (centres unmarked) [Compound 17] = no (0)
2. CC(C)C1NC2(C(=O)Nc3ccccc32)C2(c3ccccc3)C(c3ccccc3)C12c1ccccc1 (centres unmarked) [Compound 8] = yes (1)
3. NC(=O)CC1NC2(C(=O)Nc3ccccc32)C2(c3ccccc3)C(c3ccccc3)C12c1ccccc1 (centres unmarked) [Compound 18] = yes (1)
4. CC[C@H](C)C1NC2(C(=O)Nc3ccccc32)C2(c3ccccc3)C(C(=O)OC)C12c1ccccc1 (some centres unmarked) [Compound 4] = no (0)

====

tested on: peripheral blood mononuclear cells (PBMC); experiment: MTS cytotoxicity towards normal cells, PBMC; format: cell-based; conditions: Homo sapiens, 72 h, read-out: IC50 PBMC 72 h
pIC50: −log10 of the molar value.
Threshold rule: pIC50 greater than or equal to 4 is TRUE; below that, FALSE.

1. CC(C)CC1NC2(C(=O)Nc3ccccc32)C2(c3ccccc3)C(c3ccccc3)C12c1ccccc1 (stereo not drawn) = TRUE
2. CC(C)C1NC2(C(=O)Nc3ccccc32)C2(c3ccccc3)C(c3ccccc3)C12c1ccccc1 (stereo not drawn) = TRUE
3. COc1cccc2c1C(=O)c1c(O)c3c(c(O)c1C2=O)C[C@@](O)(C(=O)CO)C[C@@H]3O[C@H]1C[C@H](N)[C@H](O)[C@H](C)O1 [Doxorubicin, reference compound] = TRUE
4. CC[C@H](C)C1NC2(C(=O)Nc3ccccc32)C2(c3ccccc3)C(c3ccccc3)C12c1ccccc1 (stereo partly drawn) = FALSE
5. NC(=O)CC1NC2(C(=O)Nc3ccccc32)C2(c3ccccc3)C(c3ccccc3)C12c1ccccc1 (stereo not drawn) = TRUE

====

tested on: peripheral blood mononuclear cells (PBMC); experiment: MTS cytotoxicity towards normal cells, PBMC; type: cell-based; details: Homo sapiens, 72 h, read-out: IC50 PBMC 72 h
Recorded IC50 for the following compounds
parameterMeasured: IC50 (µM)

1. O=C1Nc2ccc([N+](=O)[O-])cc2C12N1CCCC1C1(c3ccccc3)C(c3ccccc3)C12c1ccccc1 (stereo not shown) = 84
2. COC(=O)C1C2(c3ccccc3)C(Cc3ccc(O)cc3)NC3(C(=O)Nc4ccccc43)C12c1ccccc1 (stereo not shown) = 112
3. CC[C@H](C)C1NC2(C(=O)Nc3ccccc32)C2(c3ccccc3)C(C(=O)OC)C12c1ccccc1 (stereo partly shown) = 92
4. CSCCC1NC2(C(=O)Nc3ccccc32)C2(c3ccccc3)C(c3ccccc3)C12c1ccccc1 (stereo not shown) = 92
